These data points were gathered from patent US7667031B2.

# target: T7 RNA polymerase (Escherichia phage T7, UniProt P00573)
# Sequence (P00573 whole entry): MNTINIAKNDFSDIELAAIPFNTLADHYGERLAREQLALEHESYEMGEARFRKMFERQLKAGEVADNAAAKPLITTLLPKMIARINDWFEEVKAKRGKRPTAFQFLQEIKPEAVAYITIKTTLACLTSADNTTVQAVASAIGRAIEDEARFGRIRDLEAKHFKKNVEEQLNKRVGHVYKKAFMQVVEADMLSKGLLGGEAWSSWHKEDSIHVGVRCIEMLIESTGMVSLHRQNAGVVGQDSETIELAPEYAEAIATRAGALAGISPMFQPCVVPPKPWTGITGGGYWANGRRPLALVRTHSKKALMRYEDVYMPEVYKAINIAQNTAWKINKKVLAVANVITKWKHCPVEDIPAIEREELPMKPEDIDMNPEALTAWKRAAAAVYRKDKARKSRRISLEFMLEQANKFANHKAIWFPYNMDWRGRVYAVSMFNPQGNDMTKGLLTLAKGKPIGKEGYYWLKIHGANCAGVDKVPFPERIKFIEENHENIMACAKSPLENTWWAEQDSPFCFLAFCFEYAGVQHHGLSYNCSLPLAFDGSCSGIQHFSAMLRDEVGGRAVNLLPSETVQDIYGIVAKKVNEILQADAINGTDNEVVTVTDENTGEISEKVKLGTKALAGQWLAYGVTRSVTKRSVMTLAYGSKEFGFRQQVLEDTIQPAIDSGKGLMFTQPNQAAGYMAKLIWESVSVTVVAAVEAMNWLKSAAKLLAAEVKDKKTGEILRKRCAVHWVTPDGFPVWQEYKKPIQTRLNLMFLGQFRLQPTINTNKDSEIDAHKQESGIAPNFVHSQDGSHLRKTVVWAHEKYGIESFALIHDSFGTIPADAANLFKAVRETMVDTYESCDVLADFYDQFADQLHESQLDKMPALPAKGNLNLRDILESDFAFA
# experiment.description: Transcription by T7 RNA polymerase in presence of rNTP, RNase T2 digestion, 2-dimension TLC (templates 1 and 3)
# Type: biochemical
# experimental.context: rATP, rGTP, rCTP, UTP 2 mM, rYTP 1 mM; nucleotide composition by 2-dimension TLC
Template 1 (N = A) Measured Value values, listed per item
Lab note: write the figure by itself, no unit.

// known answers, use as guide
Nc1nc2c(ncn2[C@@H]2O[C@H](CO)[C@@H](OP(=O)(O)O)[C@H]2O)c(=O)[nH]1; 4
Nc1ccn([C@@H]2O[C@H](CO)[C@@H](OP(=O)(O)O)[C@H]2O)c(=O)n1; 0.78
O=c1ccn([C@@H]2O[C@H](CO)[C@@H](OP(=O)(O)O)[C@H]2O)c(=O)[nH]1; 0.98

Prompt line: What reported Template 1 (N = A) Measured Value corresponds to Nc1ncnc2c1ncn2[C@@H]1O[C@H](CO)[C@@H](OP(=O)(O)O)[C@H]1O on T7 RNA polymerase (Escherichia phage T7, UniProt P00573)?
Response line: 0.92
